test system: PTBP3 ΔRRM1 (human), O95758-5; experiment: filter binding; conditions: Filter binding: 10 mM HEPES, 3 mM MgCl2, 1 mM DTT, 5% glycerol, 100 mM KCl, 0.05 mg/ml tRNA, 5 uM BSA, 30 C 15 min; UV crosslinking: 10 mM HEPES pH 7.9, 3 mM …
Sequence (O95758 whole entry, looked up, stated change not applied): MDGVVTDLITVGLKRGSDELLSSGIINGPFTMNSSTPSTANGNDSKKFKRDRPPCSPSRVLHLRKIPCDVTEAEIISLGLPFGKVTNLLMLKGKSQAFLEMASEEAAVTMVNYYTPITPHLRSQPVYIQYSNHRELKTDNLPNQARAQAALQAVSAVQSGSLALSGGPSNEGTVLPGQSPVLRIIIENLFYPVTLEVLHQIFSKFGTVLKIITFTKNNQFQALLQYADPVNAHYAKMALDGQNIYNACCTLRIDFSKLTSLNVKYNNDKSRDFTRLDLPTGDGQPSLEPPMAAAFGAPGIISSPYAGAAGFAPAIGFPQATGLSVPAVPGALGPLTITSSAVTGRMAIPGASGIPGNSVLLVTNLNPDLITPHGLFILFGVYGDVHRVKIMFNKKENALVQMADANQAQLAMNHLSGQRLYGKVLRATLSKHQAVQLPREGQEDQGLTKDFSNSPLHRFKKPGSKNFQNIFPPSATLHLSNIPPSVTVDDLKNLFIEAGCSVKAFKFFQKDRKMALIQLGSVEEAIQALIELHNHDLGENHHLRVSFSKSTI
Metric name: pKd
Expect pKd as a plain number equal to -log10 of the molar concentration.

Give the value of pKd reported for the following: CUCUCUCUCUCUCUCUCUCUCUCU [[CUCUCU]4]
7.12
